Just for reference, the nanobody polyreactivity screen of Harvey et al. (2022) is where these values come from.

- protocol-description: yeast display, Sf9 membrane polyspecificity reagent, FACS + sequencing; frameworks hold sequencing errors
reported-metric: polyreactivity (PSR sort gate)

- QGQLVESGPVLVQAGCSLRLSSAASGYTFGWYAMGWYRQAPGKLRELVAGISSAGSTNYADSVNGRFTISRDNANINVYLQMNSLKPEDTAVYYCAAEVRYWFLADDYWGQGTQVTVSS: high polyreactivity
- QVQLVESAGGLVQAGGSLRLSCAASGSTFSRYAMGWSRQAPGNERELVAAISSGGNTYDADSVKGRFTISRDNAKNTVYLQMNSLKPEDTPVYYCIADRYTWYPWTKCFYYWGQGTHVTVSS: high polyreactivity
- QDQLVESGGGLVQAGGSLRLSCAASGRTFDRNAMGWYRQAPGKERELVARITIDGSTNYADSVKGRFTISRDNAKNTVYLQMNSLKPEDTAVYYCATDQLSLSWYFRPYDYGYWGQGTQVTVSS: high polyreactivity

* * *

- protocol-description: yeast display, Sf9 membrane polyspecificity reagent, FACS + sequencing; frameworks hold sequencing errors
reported-metric: polyreactivity (PSR sort gate)

// below: answered sequences
• QVQLVESGGGLVQAGGSLRLSCAASGSILGLYAMGWYRQAPEKDRELVAASTWSGGSTYYADSVKGRFTISRDNAKNTVYLQMNSLKPEDTAVYYCAALARGYWVVNSLGSYDYWGQGTQVTVSS = high polyreactivity
• QVQLVESGVGLVQAGGSLRLSCAASGSIFEYYTMGWYRQAPGKERELVAAISSDGSTNYADSVTGRFTISRDDAKTTVYLQMISLKPEDTAVDYCASSTSRFYYYRKRGYWGQGTQVTVSS = low polyreactivity
• QVQLVESGGGLVQAGGSLRLSCAASGSTFGYYAMGWYRQAPGKERELVAAISGSGTSTYYADSVKGRFTISRDNAKNTVYLQMNSLKPEDTAVYYCATRYRYTGCGYWGQGSQVTVSS = low polyreactivity
• QVQLVESGGGLDQAGGSLRLSCAASGITFYRYVKGWYRQAPGKEREYVAAINWSTGTTNYADSVKGRFTISRDNAKNTVYFQMNILKPEDTAVYYCNARYRLRYIYSLRYDYWGQGTHVTVSS = high polyreactivity
• QVQLVESGGGLVQAGGSLRLSCAASGITFWLYAMGWSRQAPGKERELVAGIDNGGSTTYADSVKGRFTISRDNAKNTVYLQMNSLNPEDTAVYYCAATFEWDPVYPYNGFIYDYWGQGTQVTVSS = high polyreactivity
• QVQLVESGGGLVQAGGSLRLSCAASGSTFGLYAMGWYRQAPGKERELVAAITSTGGSTYYADSVKGRFTISRDNAKNTVYLQMNSLKPEDTAVYYCARDYRSGYDYWGQGTQVTVSS = low polyreactivity

Data point: QVQLVESGGGLVQAGGSLRLSCAASGSTLATYTMGWYRQAPGKERELVAAISFGGSTYYAYSVKGRFTISRDNAKNTVYLQMNSLKPEDTAVYYCAVYGDSYWGAYYYSDGYWGQGTQVTVSS ; polyreactivity (PSR sort gate) = low polyreactivity

Data point: QVQLVESGGGLVQAGGSLRLSCAASGSTFYIYAMGWSRQAPGKERELVARISGSGGSTYYADSVKGRFTISRDNAKNTVYLQMNSLKPEDTAVYYCAADDIYKYYQYYAFPYYRYDYWGQGTQVTVSS ; polyreactivity (PSR sort gate) = low polyreactivity

Data point: QVQLVESGGGLVQAGGSLRLSCAASGRIFRIYTMGWYRQAPGKERELVAAITKSGGSTSYADSVKGRFTISRDNAKNTVYLQMNILKPEDTAVYYCNAKGWTRPPGYDYWGQGTQVTVSS ; polyreactivity (PSR sort gate) = high polyreactivity

Data point: QVQLVESGGGLVQAGGSLRLSCAASGSTFWWYAMGWYRQAPGKDRELVAASSYSGSSTYYADSVKGRFTISRDNAKNTVYLQMNSLKPEDTAVYYCAADIQYYYNYYPGDYWGQGTQVTVSS ; polyreactivity (PSR sort gate) = low polyreactivity

Data point: QVQLVESGGGLVQAGGSLRLSCAASGSTFYSYAMGWYRQAPGKERELVAAIDWSGTSTYYADSVKGRFTISRDNAKNTVYLQMNSLKPEDTAVYYCAARYTRGGSGPDYNYWGQGTQVTVSS ; polyreactivity (PSR sort gate) = high polyreactivity
